tested on: Jurkat; assay: mean cell size (FSC-A) relative to DMSO control (fraction of control); higher = larger cells; settings: 48 h
Structures can show the parent of a compound that is named as a salt.
Quick rule: mean cell size of at least 1 means TRUE, below that means FALSE.

| Molecule | Label Value |
| --- | --- |
| COc1cc([C@@H]2c3cc4c(cc3[C@@H](O[C@@H]3O[C@@H]5CO[C@@H](C)O[C@H]5[C@H](O)[C@H]3O)[C@H]3COC(=O)[C@H]23)OCO4)cc(OC)c1O [Etoposide] (concentration: 250 nM) | TRUE |
| CN(C)CCOC(c1ccccc1)c1ccccc1 [Diphenhydramine·HCl] (concentration: 25 µM) | FALSE |
| CCCCCCCN(CC)CCCC(O)c1ccc(NS(C)(=O)=O)cc1 (stereo unspecified) [Ibutilide Fumarate] (concentration: 25 µM) | FALSE |
| O=c1[nH]c(=O)n([C@H]2C[C@H](O)[C@@H](CO)O2)cc1I [Idoxuridine] (concentration: 25 µM) | TRUE |
| CCCCC1=NC2(CCCC2)C(=O)N1Cc1ccc(-c2ccccc2-c2nnn[nH]2)cc1 [Irbesartan] (concentration: 25 µM) | FALSE |
| CN1CC(=O)N2[C@H](c3ccc4c(c3)OCO4)c3[nH]c4ccccc4c3C[C@@H]2C1=O [Tadalafil] (concentration: 25 µM) | FALSE |
| Nc1ccc(C(=O)O)c(O)c1 [4-Aminosalicylic Acid] (concentration: 25 µM) | FALSE |
| CO/N=C(\C(=O)N[C@@H]1C(=O)N2C(C(=O)O)=C(COC(C)=O)CS[C@H]12)c1csc(N)n1 [Cefotaxime Acid] (concentration: 25 µM) | FALSE |
| CC[C@H](C)C(=O)O[C@H]1C[C@H](O)C=C2C=C[C@H](C)[C@H](CC[C@@H](O)C[C@@H](O)CC(=O)O)[C@H]21 [Pravastatin·Na] (concentration: 25 µM) | TRUE |
| CCN(CC)CCOc1ccc(C(=C(Cl)c2ccccc2)c2ccccc2)cc1 [Clomiphene Citrate] (concentration: 25 µM) | FALSE |
| c1ccc2c(c1)CCCC2C1=NCCN1 (stereo unspecified) [Tetrahydrozoline·HCl] (concentration: 25 µM) | FALSE |
| CCCc1nc(C)c2c(=O)nc(-c3cc(S(=O)(=O)N4CCN(CC)CC4)ccc3OCC)[nH]n12 [Vardenafil] (concentration: 25 µM) | FALSE |
| Nc1ccn([C@H]2CC[C@@H](CO)O2)c(=O)n1 [Zalcitabine (2',3'-Dideoxycytidine)] (concentration: 25 µM) | TRUE |
| OC(CNCC(O)C1CCc2cc(F)ccc2O1)C1CCc2cc(F)ccc2O1 (stereo unspecified) [Nebivolol·HCl] (concentration: 25 µM) | TRUE |
| C#C[C@]1(O)CC[C@H]2[C@@H]3CCc4cc(O)ccc4[C@H]3CC[C@@]21C [Ethinyl Estradiol] (concentration: 25 µM) | TRUE |
| CN1CCc2cccc3c2[C@H]1Cc1ccc(O)c(O)c1-3 [Apomorphine·HCl Hemihydrate] (concentration: 2.5 µM) | TRUE |
| O=C(NCC1CCCCN1)c1cc(OCC(F)(F)F)ccc1OCC(F)(F)F (stereo unspecified) [Flecainide Acetate] (concentration: 25 µM) | FALSE |

###

tested on: Jurkat; experiment: cell count relative to DMSO control (fraction of control); higher = more cells (less growth inhibition); settings: 48 h
Listing of entries alongside the reported cell count.
Test Readout: cell count

| Compound | Test Readout | Value |
| --- | --- | --- |
| CC(C)OC(=O)C(C)(C)Oc1ccc(C(=O)c2ccc(Cl)cc2)cc1 [Fenofibrate] (concentration: 25 µM) | cell count | 0.477 |
| Nc1nnc(-c2cccc(Cl)c2Cl)c(N)n1 [Lamotrigine] (concentration: 25 µM) | cell count | 0.734 |
| O=C1Nc2ccc(Cl)cc2[C@@](C#CC2CC2)(C(F)(F)F)O1 [Efavirenz] (concentration: 25 µM) | cell count | 0.628 |
| CC(C)(S)[C@@H](N)C(=O)O [Penicillamine (D-Penicillamine)] (concentration: 25 µM) | cell count | 0.796 |

###

test system: Jurkat; test: mean cell size (FSC-A) relative to DMSO control (fraction of control); higher = larger cells; settings: 48 h
Counter-ions that a name gives are not always drawn.

| Compound | Assay System | mean cell size |
| --- | --- | --- |
| CC[C@@H]1C(=O)OC[C@@H]1Cc1cncn1C [Pilocarpine·HCl] (concentration: 25 µM) | Jurkat | 0.97 |
| Cc1cnc(NC(=O)C2=C(O)c3ccccc3S(=O)(=O)N2C)s1 [Meloxicam] (concentration: 25 µM) | Jurkat | 0.907 |
| CO[C@@]1(NC(=O)Cc2cccs2)C(=O)N2C(C(=O)O)=C(COC(N)=O)CS[C@@H]21 [Cefoxitin·Na] (concentration: 25 µM) | Jurkat | 0.939 |
| CC(C)(O/N=C(\C(=O)N[C@@H]1C(=O)N2C(C(=O)[O-])=C(C[n+]3ccccc3)CS[C@H]12)c1csc(N)n1)C(=O)O [Ceftazidime] (concentration: 25 µM) | Jurkat | 0.958 |
| CCCCc1ncc(/C=C(\Cc2cccs2)C(=O)O)n1Cc1ccc(C(=O)O)cc1 [Eprosartan Mesylate] (concentration: 25 µM) | Jurkat | 1.01 |
| C[C@H](CS)C(=O)N1CCC[C@H]1C(=O)O [Captopril] (concentration: 25 µM) | Jurkat | 0.951 |
| OCCN1CCN(CCCN2c3ccccc3Sc3ccc(Cl)cc32)CC1 [Perphenazine] (concentration: 2.5 µM) | Jurkat | 1 |
| CN(C)/N=N/c1[nH]cnc1C(N)=O [Dacarbazine] (concentration: 25 µM) | Jurkat | 0.981 |
| C[C@]12CC[C@@H]3c4ccc(O)cc4CC[C@H]3[C@@H]1CC[C@@H]2O [Estradiol] (concentration: 25 µM) | Jurkat | 0.892 |
| Cc1c2oc3c(C)ccc(C(=O)N[C@@H]4C(=O)N[C@H](C(C)C)C(=O)N5CCC[C@H]5C(=O)N(C)CC(=O)N(C)[C@@H](C(C)C)C(=O)O[C@@H]4C)c3nc-2c(C(=O)N[C@@H]2C(=O)N[C@H](C(C)C)C(=O)N3CCC[C@H]3C(=O)N(C)CC(=O)N(C)[C@@H](C(C)C)C(=O)O[C@@H]2C)c(N)c1=O [Dactinomycin (= Actinomycin D)] (concentration: 25 nM) | Jurkat | 0.784 |
| O=NN(CCCl)C(=O)NCCCl [Carmustine] (concentration: 25 µM) | Jurkat | 1.07 |
| CC(C)OC(=O)CCC/C=C\C[C@@H]1[C@@H](/C=C/[C@@H](O)COc2cccc(C(F)(F)F)c2)[C@H](O)C[C@@H]1O [Travoprost] (concentration: 25 µM) | Jurkat | 0.92 |

###

system: Jurkat; assay: mean cell size (FSC-A) relative to DMSO control (fraction of control); higher = larger cells; conditions: 48 h

| Compound | Assay System | mean cell size |
| --- | --- | --- |
| CO/N=C(\C(=O)N[C@@H]1C(=O)N2C(C(=O)OCOC(=O)C(C)(C)C)=C(/C=C\c3scnc3C)CS[C@H]12)c1csc(N)n1 [Cefditoren Pivoxil] (concentration: 25 µM) | Jurkat | 1 |
| CCCCC[C@H](O)/C=C/[C@H]1[C@H](O)CC(=O)[C@@H]1C/C=C\CCCC(=O)O [Dinoprostone] (concentration: 25 µM) | Jurkat | 0.88 |
| Nc1nc(=O)c2c([nH]1)NCC(CNc1ccc(C(=O)N[C@@H](CCC(=O)O)C(=O)O)cc1)N2C=O (stereo not given in full) [Leucovorin Calcium Pentahydrate] (concentration: 25 µM) | Jurkat | 0.933 |
| CC(=O)O[C@H]1C[C@@H]2CC[C@@H]3[C@H](CC[C@@]4(C)[C@H]3C[C@H]([N+]3(C)CCCCC3)[C@@H]4OC(C)=O)[C@@]2(C)C[C@@H]1N1CCCCC1 [Vecuronium Bromide] (concentration: 25 µM) | Jurkat | 0.858 |
| C[C@@H](c1ncncc1F)[C@](O)(Cn1cncn1)c1ccc(F)cc1F [Voriconazole] (concentration: 25 µM) | Jurkat | 0.963 |

###

tested on: Jurkat; assay: mean cell size (FSC-A) relative to DMSO control (fraction of control); higher = larger cells; settings: 48 h
Where a name gives a salt, the structure may show the parent alone.
Listing of entries alongside the reported mean cell size.

| Compound | mean cell size |
| --- | --- |
| CCCSc1ccc2[nH]c(NC(=O)OC)nc2c1 [Albendazole] (concentration: 2.5 µM) | 1.32 |
| C[C@H](CCC(=O)O)[C@H]1CC[C@H]2[C@@H]3[C@H](O)C[C@@H]4C[C@H](O)CC[C@]4(C)[C@H]3CC[C@]12C [Chenodiol (Chenodeoxycholic Acid)] (concentration: 25 µM) | 0.946 |
| CO/N=C(\C(=O)N[C@@H]1C(=O)N2C(C(=O)O)=CCS[C@H]12)c1csc(N)n1 [Ceftizoxim·Na] (concentration: 25 µM) | 0.95 |
| CN(C)CCC[C@@]1(c2ccc(F)cc2)OCc2cc(C#N)ccc21 [Escitalopram] (concentration: 25 µM) | 1.06 |
| COc1cc2nc(N3CCN(C(=O)c4ccco4)CC3)nc(N)c2cc1OC [Prazosin·HCl] (concentration: 2.5 µM) | 1.03 |
| O=C1NC(c2ccccc2)(c2ccccc2)C(=O)N1COP(=O)(O)O [Fosphenytoin·Na Pentahydrate] (concentration: 25 µM) | 0.887 |
| COc1ccc2cc([C@H](C)C(=O)O)ccc2c1 [Naproxen] (concentration: 25 µM) | 0.941 |
| CC(C)NCC(O)COc1ccc(COCCOC(C)C)cc1 (configuration not stated) [Bisoprolol Fumarate] (concentration: 25 µM) | 0.964 |
| CN1C(=O)CC(C)(c2ccccc2)C1=O (configuration not stated) [Methsuximide] (concentration: 25 µM) | 1.03 |
| CCC1(C)CC(=O)NC1=O (configuration not stated) [Ethosuximide] (concentration: 25 µM) | 1.05 |
| COc1cc2ncnc(Nc3ccc(F)c(Cl)c3)c2cc1OCCCN1CCOCC1 [Gefitinib] (concentration: 2.5 µM) | 1.04 |
| CCCOc1ccc(C(=O)OCCN(CC)CC)cc1N [Proparacaine·HCl] (concentration: 25 µM) | 1.06 |
| N=c1nc(N2CCCCC2)cc(N)n1O [Minoxidil] (concentration: 25 µM) | 1 |
| CCCCN1CCCCC1C(=O)Nc1c(C)cccc1C (configuration not stated) [Bupivacaine·HCl] (concentration: 25 µM) | 0.982 |
| CC(C)C[C@H](NC(=O)[C@H](Cc1ccccc1)NC(=O)c1cnccn1)B(O)O [Bortezomib] (concentration: 25 nM) | 0.894 |
| COc1cc2c(cc1OC)C(=O)C(CC1CCN(Cc3ccccc3)CC1)C2 (configuration not stated) [Donepezil·HCl] (concentration: 25 µM) | 1.03 |
| NC1=NCC2c3ccccc3Cc3ccccc3N12 (configuration not stated) [Epinastine·HCl] (concentration: 25 µM) | 0.951 |
| CC(C)Cc1ccc(C(C)C(=O)O)cc1 (configuration not stated) [Ibuprofen] (concentration: 25 µM) | 0.955 |
| CCc1c2c(nc3ccc(OC(=O)N4CCC(N5CCCCC5)CC4)cc13)-c1cc3c(c(=O)n1C2)COC(=O)[C@]3(O)CC [Irinotecan·HCl] (concentration: 250 nM) | 1.05 |
| CC[C@@]1(O)C(=O)OCc2c1cc1n(c2=O)Cc2cc3c(CN(C)C)c(O)ccc3nc2-1 [Topotecan·HCl] (concentration: 25 nM) | 1.31 |
| O=P(O)(O)C(O)(Cc1cccnc1)P(=O)(O)O [Risredonic Acid] (concentration: 25 µM) | 0.964 |
| Clc1ccc(CO/N=C(\Cn2ccnc2)c2ccc(Cl)cc2Cl)c(Cl)c1 [Oxiconazole Nitrate] (concentration: 25 µM) | 0.933 |
| CC1=C(/C=C/C(C)=C/C=C/C(C)=C/C(=O)O)C(C)(C)CCC1 [Tretinoin] (concentration: 25 µM) | 0.88 |
| Cc1ccc(O)c([C@H](CCN(C(C)C)C(C)C)c2ccccc2)c1 [Tolterodine Tartrate] (concentration: 25 µM) | 0.935 |
| CCc1nn(CCCN2CCN(c3cccc(Cl)c3)CC2)c(=O)n1CCOc1ccccc1 [Nefazodone·HCl] (concentration: 25 µM) | 0.924 |
| CC[C@H](C)[C@H](N)C1=N[C@H](C(=O)N[C@@H](CC(C)C)C(=O)N[C@H](CCC(=O)O)C(=O)N[C@H](C(=O)N[C@H]2CCCCNC(=O)[C@H](CC(N)=O)NC(=O)[C@@H](CC(=O)O)NC(=O)[C@H](Cc3cnc[nH]3)NC(=O)[C@@H](Cc3ccccc3)NC(=O)[C@H]([C@@H](C)CC)NC(=O)[C@@H](CCCN)NC2=O)[C@@H](C)CC)CS1 [Bacitracin] (concentration: 25 µM) | 0.977 |
| CC[C@H](C)C(=O)O[C@H]1C[C@@H](C)C=C2C=C[C@H](C)[C@H](CC[C@@H]3C[C@@H](O)CC(=O)O3)[C@H]21 [Lovastatin] (concentration: 25 µM) | 1.16 |
